Ki values by entry
Biological target: Melanocortin receptor 4 (Homo sapiens)
Sequence (P32245 whole entry): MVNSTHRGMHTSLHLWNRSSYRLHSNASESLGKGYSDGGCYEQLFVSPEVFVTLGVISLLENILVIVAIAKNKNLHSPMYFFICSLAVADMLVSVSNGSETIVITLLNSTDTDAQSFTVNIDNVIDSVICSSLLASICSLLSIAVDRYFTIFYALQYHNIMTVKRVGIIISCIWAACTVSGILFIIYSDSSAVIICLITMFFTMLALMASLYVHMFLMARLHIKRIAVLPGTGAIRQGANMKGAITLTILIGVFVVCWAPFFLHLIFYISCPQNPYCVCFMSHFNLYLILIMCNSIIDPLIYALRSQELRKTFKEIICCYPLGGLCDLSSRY
Assay: Inhibition of [125I]NDP-alpha-MSH binding to human MC4R transfected in HEK293 cells

| compound | Ki [nM] |
| --- | --- |
| O=C(CC1Cc2ccccc2N1)N[C@H](Cc1ccc(Cl)cc1)C(=O)N1CCN(C(CN2C(=O)CCC2=O)C2CCCCC2)CC1 (stereo in doubt; 36a) | 10 |
| CS(=O)(=O)NCC(C1CCCCC1)N1CCN(C(=O)[C@@H](Cc2ccc(Cl)cc2)NC(=O)CC2Cc3ccccc3N2)CC1 (some centres undefined) | 26 |
| CCN(CC)CC(CC1CCCCC1)N1CCN(C(=O)[C@@H](Cc2ccc(Cl)cc2)NC(=O)[C@H]2Cc3ccccc3CN2)CC1 (some centres undefined) | 13 |
| CCN(CC)C(=O)C(C1CCCCC1)N1CCN(C(=O)[C@@H](Cc2ccc(Cl)cc2)NC(=O)CC2Cc3ccccc3N2)CC1 (some centres undefined) | 148 |
| O=C(CC1Cc2ccccc2N1)N[C@H](Cc1ccc(Cl)cc1)C(=O)N1CCN(C(CC2CCCCC2)CN2CCOCC2)CC1 (some centres undefined) | 10 |
| CCN(CC(C1CCCCC1)N1CCN(C(=O)[C@@H](Cc2ccc(Cl)cc2)NC(=O)CC2Cc3ccccc3N2)CC1)S(C)(=O)=O (stereo in doubt; 34a) | 6 |
| CCN(CC)CC(c1ccccc1F)N1CCN(C(=O)[C@@H](Cc2ccc(Cl)cc2)NC(=O)[C@H]2Cc3ccccc3CN2)CC1 (some centres undefined) | 20 |
| CCN(CC(C1CCCCC1)N1CCN(C(=O)[C@@H](Cc2ccc(Cl)cc2)NC(=O)CC2Cc3ccccc3N2)CC1)C(C)=O (stereo in doubt; 35a) | 2 |
| CCN(CC)CC(C1CCCCC1)N1CCN(C(=O)[C@@H](Cc2ccc(Cl)cc2)NC(=O)CC2Cc3ccccc3N2)CC1 (stereo in doubt; 28b) | 5 |
